target: cynomolgus beta klotho / human FGFR1c receptor complex on cells (cynomolgus monkey (Macaca …)); experiment: cell-based or functional assay
Sequence (chain, as listed by the source limits assumed, chain 1 of 2): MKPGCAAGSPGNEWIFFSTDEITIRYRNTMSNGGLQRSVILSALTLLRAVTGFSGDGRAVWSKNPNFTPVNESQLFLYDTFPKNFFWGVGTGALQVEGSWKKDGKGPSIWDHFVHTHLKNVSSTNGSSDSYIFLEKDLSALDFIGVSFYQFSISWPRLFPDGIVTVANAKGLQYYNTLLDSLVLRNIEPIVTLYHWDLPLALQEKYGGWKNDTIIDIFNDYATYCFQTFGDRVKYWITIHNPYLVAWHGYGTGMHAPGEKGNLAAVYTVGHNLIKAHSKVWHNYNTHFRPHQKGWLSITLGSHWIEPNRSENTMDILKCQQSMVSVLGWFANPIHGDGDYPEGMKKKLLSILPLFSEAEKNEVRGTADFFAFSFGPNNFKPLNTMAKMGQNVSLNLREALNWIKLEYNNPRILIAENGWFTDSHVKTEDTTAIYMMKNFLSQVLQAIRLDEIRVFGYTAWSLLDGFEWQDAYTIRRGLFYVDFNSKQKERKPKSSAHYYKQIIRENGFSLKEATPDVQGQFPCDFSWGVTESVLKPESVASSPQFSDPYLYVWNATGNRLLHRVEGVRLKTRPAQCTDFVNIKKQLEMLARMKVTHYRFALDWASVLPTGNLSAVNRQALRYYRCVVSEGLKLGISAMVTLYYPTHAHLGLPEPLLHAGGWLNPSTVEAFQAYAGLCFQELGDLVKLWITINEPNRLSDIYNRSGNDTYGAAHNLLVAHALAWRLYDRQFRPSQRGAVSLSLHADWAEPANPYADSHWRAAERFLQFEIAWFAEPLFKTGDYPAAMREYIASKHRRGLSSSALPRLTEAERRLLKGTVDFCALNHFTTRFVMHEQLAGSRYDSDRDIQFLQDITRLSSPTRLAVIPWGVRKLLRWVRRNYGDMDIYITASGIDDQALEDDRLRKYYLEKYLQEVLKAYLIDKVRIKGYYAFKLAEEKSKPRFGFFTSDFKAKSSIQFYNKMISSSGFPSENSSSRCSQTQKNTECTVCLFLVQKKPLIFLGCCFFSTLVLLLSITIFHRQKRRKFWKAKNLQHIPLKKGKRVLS
Sequence (chain, as listed by the source limits assumed, chain 2 of 2): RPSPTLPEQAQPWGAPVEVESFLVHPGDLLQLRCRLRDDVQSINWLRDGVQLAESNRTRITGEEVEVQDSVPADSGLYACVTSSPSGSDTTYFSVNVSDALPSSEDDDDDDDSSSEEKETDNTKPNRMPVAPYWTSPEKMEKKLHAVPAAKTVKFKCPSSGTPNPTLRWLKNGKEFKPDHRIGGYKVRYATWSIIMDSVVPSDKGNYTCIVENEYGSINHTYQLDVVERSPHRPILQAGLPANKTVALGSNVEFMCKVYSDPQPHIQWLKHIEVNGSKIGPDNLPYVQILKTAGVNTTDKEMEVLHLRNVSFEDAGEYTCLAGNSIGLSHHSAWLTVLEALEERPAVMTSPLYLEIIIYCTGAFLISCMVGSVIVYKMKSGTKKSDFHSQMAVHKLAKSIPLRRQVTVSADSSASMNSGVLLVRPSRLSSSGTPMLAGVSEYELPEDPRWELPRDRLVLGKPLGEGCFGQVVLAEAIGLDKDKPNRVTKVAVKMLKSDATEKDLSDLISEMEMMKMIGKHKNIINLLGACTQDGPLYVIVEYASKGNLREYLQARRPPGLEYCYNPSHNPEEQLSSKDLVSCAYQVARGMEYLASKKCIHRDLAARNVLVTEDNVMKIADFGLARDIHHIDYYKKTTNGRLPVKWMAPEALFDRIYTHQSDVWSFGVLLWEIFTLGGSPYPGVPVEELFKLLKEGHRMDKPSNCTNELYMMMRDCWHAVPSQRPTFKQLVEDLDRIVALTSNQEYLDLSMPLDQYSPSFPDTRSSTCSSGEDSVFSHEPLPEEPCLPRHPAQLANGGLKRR
endpoint-label: HEK293 cynoKLB/R1c reporter assay EC50, Experiment - A (nM)
Report the figure in nM without appending any unit label.

Some solved entries appear below for comparison.
binder	readout-number
antibody 3L3 (antibody, V domains shown, Murine monoclonal antibody) VH: QVQPQESGPELVKPGTLVKISCKASGYTFTSYDINWVKQRPGQGLEWIGWIYPGDGSPKYDEKFKGKATLTADKSSSTAYMQLSSLTSENSAVYFCARSDYYGSRSFVYWGQGTLVTVSA VL: DIVLTQSPASLAVSLGQRATISCRASKSVSTSGYSYVHWYQQKPGQPPKLLIYLASNLESGVPARFSGRGSGTDFTLNIHPVEEEDAATYYCQHSGELPYTFGGGTKLEIK	3.58
antibody 3N20 (antibody, V domains shown, Murine monoclonal antibody) VH: QVQLQESGAELARPGASVKLSCKVSGYIFTNYGISWVKQRTGQGLEWIGEIYPRSGNTYYNEKFKGKATLTADMSSSTAYMDLRSLTSEDSAVYFCARHWDGVLDYFDYWGQGTSLTVSS VL: DIVMTQSPSSLSVSAGEKVTMSCKSSQSLLNSGNQKNYLAWYQQKPGQPPKLLIYGASTRESGVPDRFTGSGSGTDFTLTISSVQAEDLAVYYCLNDHSYPFTFGAGTKLELK	2.46
antibody 4P5 (antibody, V domains shown, Murine monoclonal antibody) VH: QVQLQQSGPELVKPGALVKISCKASGYTFTRYDINWVKKRPGQGLEWIGWIYPGDDSTKYNEKFKGKATLTADKSSSTAYMQLSSLTSENSAVYFCARSDYYGSRSFVYWGQGTLVTVSA VL: DILLTQSPASLAVSLGQRATISCRASKSVSTSGYSYMHWYQQKPGQPPKLLIYLASNLESGVPARFSGRGSGTDFTLNIHPVEEEDAATYYCHHSGELPYTFGGGTKLEIK	0.347

Ask: Suppose we examine the binder antibody 2L12 (antibody, V domains shown, Murine monoclonal antibody) VH: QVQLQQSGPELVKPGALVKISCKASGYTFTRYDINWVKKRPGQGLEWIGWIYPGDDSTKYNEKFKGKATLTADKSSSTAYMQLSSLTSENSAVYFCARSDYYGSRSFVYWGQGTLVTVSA VL: DIVLTQSPASLPVSLGQRATISCRASKSVSTSGYSYLHWYQQKPGQPPKLLIYLASNLESGVPARFSGSGSGTDFTLNIHPVEEEDAATYYCQHSGELPYTFGGGTKLEIK ; what HEK293 cynoKLB/R1c reporter assay EC50, Experiment - A value has been reported?
Result: 0.26

src = patent US20210030857A1
